# Test system: KDO aldolase (EC 4.1.2.23)
# protocol_notes: KDO aldolase-catalyzed aldol condensation of sugars with pyruvate (kinetic and relative rate measurements via remaining pyruvate)
# Assay type: biochemical, Aureobacterium barkerei strain KDO-37-2
# applied_conditions: pyruvate 10 mM, sugar 0.5 M, 0.1 M phosphate pH 7.5, 37° C.; relative to D-arabinose
readout_name: rel. V (relative rate of aldol condensation) (%)
Output spec: scalar in %, unitless text.

Exercise: What value of rel. V (relative rate of aldol condensation) on KDO aldolase (EC 4.1.2.23) does O=C[C@@H](O)[C@H](O)[C@H](O)[C@H](O)CO have?
Solution: 25

Exercise: Can you look up rel. V (relative rate of aldol condensation) on KDO aldolase (EC 4.1.2.23) for O=C[C@H](O)[C@H](O)[C@H](O)CO ?
Solution: 72

Exercise: What value of rel. V (relative rate of aldol condensation) on KDO aldolase (EC 4.1.2.23) does O=CC[C@H](O)[C@H](O)CO have?
Solution: 71
